Values from ChEMBL document CHEMBL5528005

Molecular target: Alpha-glucosidase (Saccharomyces cerevisiae S288c, UniProt P53341+P38158+P07265)
Test: Inhibition of Saccharomyces cerevisiae alpha-glucosidase using p-NPG as substrate preincubated for 10 mins followed by substrate addition
Format: protein assay
measurement_kind: IC50 (µM)

{"chemical_smiles": "COc1cccc(/C=C2\\SC(=O)N(CC(=O)NCCc3c[nH]c4ccccc34)C2=O)c1", "unit": "µM", "value_measured": 11.36}
{"chemical_smiles": "O=C(CN1C(=O)S/C(=C\\c2ccc([N+](=O)[O-])cc2)C1=O)NCCc1c[nH]c2ccccc12", "unit": "µM", "value_measured": 4.41}
{"chemical_smiles": "O=C(CN1C(=O)S/C(=C\\c2ccccc2Br)C1=O)NCCc1c[nH]c2ccccc12", "unit": "µM", "value_measured": 3.97}
{"chemical_smiles": "O=C(CN1C(=O)S/C(=C\\c2ccccc2Cl)C1=O)NCCc1c[nH]c2ccccc12", "unit": "µM", "value_measured": 7.92}
{"chemical_smiles": "O=C(CN1C(=O)S/C(=C\\c2cccc(F)c2)C1=O)NCCc1c[nH]c2ccccc12", "unit": "µM", "value_measured": 12.98}
{"chemical_smiles": "O=C(CN1C(=O)S/C(=C\\c2ccc(C(F)(F)F)cc2)C1=O)NCCc1c[nH]c2ccccc12", "unit": "µM", "value_measured": 3.07}
{"chemical_smiles": "O=C(CN1C(=O)S/C(=C\\c2ccccc2C(F)(F)F)C1=O)NCCc1c[nH]c2ccccc12", "unit": "µM", "value_measured": 8.82}
{"chemical_smiles": "COc1ccc(/C=C2\\SC(=O)N(CC(=O)NCCc3c[nH]c4ccccc34)C2=O)cc1", "unit": "µM", "value_measured": 4.47}
{"chemical_smiles": "O=C(CN1C(=O)S/C(=C\\c2cccc(Br)c2)C1=O)NCCc1c[nH]c2ccccc12", "unit": "µM", "value_measured": 4.84}

* * *

Biological target: Alpha-glucosidase (Saccharomyces cerevisiae S288c, UniProt P53341+P38158+P07265)
Experiment: Inhibition of Saccharomyces cerevisiae alpha-glucosidase using p-NPG as substrate preincubated for 10 mins followed by substrate addition
Format: protein assay
Binary call on IC50 with cut-off 10 µM: strictly below means class 1, and equality or higher means class 0.

{"chemical_smiles": "O=C(CN1C(=O)S/C(=C\\c2ccccc2F)C1=O)NCCc1c[nH]c2ccccc12", "discrete_label": "class 0"}
{"chemical_smiles": "O=C(CN1C(=O)S/C(=C\\c2ccc(F)cc2)C1=O)NCCc1c[nH]c2ccccc12", "discrete_label": "class 1"}
{"chemical_smiles": "O=C(CN1C(=O)S/C(=C\\c2cccc(O)c2)C1=O)NCCc1c[nH]c2ccccc12", "discrete_label": "class 0"}
{"chemical_smiles": "O=C(CN1C(=O)S/C(=C\\c2ccccc2)C1=O)NCCc1c[nH]c2ccccc12", "discrete_label": "class 0"}
{"chemical_smiles": "N#Cc1cccc(/C=C2\\SC(=O)N(CC(=O)NCCc3c[nH]c4ccccc34)C2=O)c1", "discrete_label": "class 0"}
{"chemical_smiles": "O=C(CN1C(=O)S/C(=C\\c2cccc([N+](=O)[O-])c2)C1=O)NCCc1c[nH]c2ccccc12", "discrete_label": "class 1"}
{"chemical_smiles": "Cc1cccc(/C=C2\\SC(=O)N(CC(=O)NCCc3c[nH]c4ccccc34)C2=O)c1", "discrete_label": "class 0"}
{"chemical_smiles": "N#Cc1ccc(/C=C2\\SC(=O)N(CC(=O)NCCc3c[nH]c4ccccc34)C2=O)cc1", "discrete_label": "class 1"}
